- Test system: Mycobacterium marinum
- measurement notes: Anti-biotic assay: M. marinum growth in broth (luminescence)
- Type: cell-based
- cond: 72 h, read-out: mean (normalised M. marinum growth, Mm in broth)
# activity at 33.3333 µM values compiled below
Write the quantity with the unit trailing the number.

{"columns": ["compound", "result"],
 "data": [
  ["Oc1ccc(/C=C/c2cc(O)c3c(c2)O[C@H](c2ccc(O)cc2)[C@H]3c2cc(O)c3c(c2)O[C@H](c2ccc(O)cc2)[C@H]3c2cc(O)c3c(c2)O[C@H](c2ccc(O)cc2O)[C@H]3c2cc(O)cc(O)c2)cc1 [Compound 7, Macrostachyol A]", "112%"]
]}

Please look at the following compound next.
Q: Which value of activity at 33.3333 µM has been reported for Oc1ccc(/C=C/c2cc(O)c3c(c2)O[C@H](c2ccc(O)cc2)[C@H]3c2cc(O)c3c(c2)O[C@H](c2ccc(O)cc2)[C@H]3c2cc(O)c3c(c2)O[C@H](c2ccc(O)cc2)[C@H]3c2cc(O)cc(O)c2)cc1 [Compound 8, Gnemonol B] in the records?
Ans: 117%

----------
- Tested on: Mycobacterium marinum
- measurement notes: Infection assay: intracellular M. marinum growth (luminescence) in D. discoideum
- Assay type: cell-based
- cond: 72 h, conc 3.703703704 uM, vehicle control set at 1, read-out: mean normalized residual growth, Mm in infection
Items are presented alongside their recorded activity at 3.7037 µM.
// return numeric value only (unit: %, not printed)

# annotated cases, reported activity at 3.7037 µM shown
{"columns": ["compound", "tested on", "activity at 3.7037 µM / %"],
 "data": [
  ["Oc1ccc(C=Cc2cc(O)cc3c2C(c2cc(O)cc(O)c2)C(c2ccc(O)c4c2OC(c2ccc(O)cc2O)C4c2cc(O)cc(O)c2)O3)cc1 (single isomer, unassigned; (-)) [Compound 11, (−)-Gnetuhainin M]", "Mycobacterium marinum", 127],
  ["Oc1ccc(/C=C/c2cc(O)c3c(c2)O[C@@H](c2ccc(O)cc2)[C@@H]3c2cc(O)c3c(c2)O[C@H](c2ccc(O)cc2)[C@H]3c2cc(O)cc(O)c2)cc1 [Compound 6, (−)-Gnetin E]", "Mycobacterium marinum", 196],
  ["Oc1ccc(/C=C/c2cc(O)c3c(c2)O[C@@H](c2ccc(O)cc2)[C@@H]3c2cc(O)c3c(c2)O[C@@H](c2ccc(O)cc2O)[C@H]3c2cc(O)cc(O)c2)cc1 [Compound 4, (−)-Gnetoline A]", "Mycobacterium marinum", 176],
  ["Oc1cc(O)cc([C@H]2c3c(O)cc(/C=C/c4ccc(O)cc4O)cc3O[C@@H]2c2ccc(O)cc2O)c1 (relative stereo) [Compound 10, (−)-Gnetumontanin A]", "Mycobacterium marinum", 120]
]}

Q: Query the reported activity at 3.7037 µM for Mycobacterium marinum; item: Oc1ccc([C@@H]2Oc3cc(O)ccc3[C@H]3[C@H](c4cc(O)cc(O)c4)c4c(O)cc(O)cc4[C@H]32)cc1 [Compound 9, (−)-Gnemontanin G]
Ans: 76.2

----------
- Test system: Mycobacterium marinum
- measurement notes: Infection assay: intracellular M. marinum growth (luminescence) in D. discoideum
- Assay type: cell-based
- cond: 72 h, conc 1.234567901 uM, vehicle control set at 1, read-out: median normalized residual growth, Mm in infection
Recorded measurements of activity at 1.23457 µM, one per entry
Express your answer in %, writing the number without its unit.

Recorded results for 4 compounds are shown here.
{"columns": ["compound", "tested on", "activity at 1.23457 µM, %"],
 "data": [
  ["Oc1ccc(/C=C/c2cc(O)c3c(c2)O[C@@H](c2ccc(O)cc2O)[C@@H]3c2cc(O)cc(O)c2)cc1 (relative stereo) [Compound 1, (+)-Gnetin D]", "Mycobacterium marinum", 117],
  ["Oc1ccc(/C=C/c2cc(O)c3c(c2)O[C@H](c2ccc(O)cc2)[C@H]3c2cc(O)c3c(c2)O[C@H](c2ccc(O)cc2)[C@H]3c2cc(O)c3c(c2)O[C@H](c2ccc(O)cc2O)[C@H]3c2cc(O)cc(O)c2)cc1", "Mycobacterium marinum", 153],
  ["Oc1cc(O)cc([C@H]2c3c(O)cc(/C=C/c4ccc(O)cc4O)cc3O[C@@H]2c2ccc(O)cc2O)c1 (relative stereo) [Compound 10, (−)-Gnetumontanin A]", "Mycobacterium marinum", 135],
  ["Oc1ccc(/C=C/c2cc(O)c3c(c2)O[C@@H](c2ccc(O)cc2)[C@@H]3c2cc(O)c3c(c2)O[C@H](c2ccc(O)cc2O)[C@H]3c2cc(O)cc(O)c2)cc1 [Compound 5, (−)-Latifolol]", "Mycobacterium marinum", 158]
]}

Q: Please provide the recorded activity at 1.23457 µM for Oc1ccc([C@@H]2Oc3cc(O)ccc3[C@H]3[C@H](c4cc(O)cc(O)c4)c4c(O)cc(O)cc4[C@H]32)cc1 [Compound 9, (−)-Gnemontanin G] , tested on Mycobacterium marinum.
Ans: 85.7

Q: Lab note: need activity at 1.23457 µM with Mycobacterium marinum for entry Oc1ccc(C=Cc2cc(O)cc3c2C(c2cc(O)cc(O)c2)C(c2ccc(O)c4c2OC(c2ccc(O)cc2O)C4c2cc(O)cc(O)c2)O3)cc1 (single isomer, unassigned; (-)) [Compound 11, (−)-Gnetuhainin M] , please look it up.
Ans: 106

Q: # returns recorded activity at 1.23457 µM (system: Mycobacterium marinum) for Oc1ccc(/C=C/c2cc(O)c3c(c2)O[C@@H](c2ccc(O)cc2)[C@@H]3c2cc(O)c3c(c2)O[C@@H](c2ccc(O)cc2O)[C@H]3c2cc(O)cc(O)c2)cc1 [Compound 4, (−)-Gnetoline A]
Ans: 160

----------
- Test system: Mycobacterium marinum
- measurement notes: Anti-biotic assay: M. marinum growth in broth (luminescence)
- Type: cell-based
- cond: 72 h, read-out: mean (normalised M. marinum growth, Mm in broth)
parameter measured: activity at 3.7037 µM (%)
Entry rule: numbers only, all in %.

{"columns": ["compound", "tested on", "activity at 3.7037 µM / %"],
 "data": [
  ["Oc1ccc(/C=C/c2cc(O)c3c(c2)O[C@@H](c2ccc(O)cc2O)[C@@H]3c2cc(O)cc(O)c2)cc1 (relative stereo) [Compound 1, (+)-Gnetin D]", "Mycobacterium marinum", 118]
]}

Q: What does the record list as activity at 3.7037 µM for Oc1cc(O)cc([C@H]2c3c(O)cc(/C=C/c4ccc(O)cc4O)cc3O[C@@H]2c2ccc(O)cc2O)c1 (relative stereo) [Compound 10, (−)-Gnetumontanin A] ?
Ans: 95.3

Q: Which activity at 3.7037 µM value belongs to Oc1ccc(C=Cc2cc(O)cc3c2C(c2cc(O)cc(O)c2)C(c2ccc(O)c4c2OC(c2ccc(O)cc2O)C4c2cc(O)cc(O)c2)O3)cc1 (single isomer, unassigned; (-)) [Compound 11, (−)-Gnetuhainin M] ?
Ans: 110

Q: Tell me the measured activity at 3.7037 µM of Oc1ccc(/C=C/c2cc(O)c3c(c2)O[C@@H](c2ccc(O)cc2)[C@@H]3c2cc(O)c3c(c2)O[C@H](c2ccc(O)cc2O)[C@H]3c2cc(O)cc(O)c2)cc1 [Compound 5, (−)-Latifolol] , please.
Ans: 104

Q: Given the compound `Oc1ccc(/C=C/c2cc(O)c3c(c2)O[C@H](c2ccc(O)cc2)[C@H]3c2cc(O)c3c(c2)O[C@H](c2ccc(O)cc2)[C@H]3c2cc(O)c3c(c2)O[C@H](c2ccc(O)cc2O)[C@H]3c2cc(O)cc(O)c2)cc1` , what is its reported activity at 3.7037 µM?
Ans: 114

Q: Give its activity at 3.7037 µM value. Item: Oc1ccc([C@@H]2Oc3cc(O)ccc3[C@H]3[C@H](c4cc(O)cc(O)c4)c4c(O)cc(O)cc4[C@H]32)cc1 [Compound 9, (−)-Gnemontanin G]
Ans: 92.7

Q: What does the data say about its activity at 3.7037 µM? Entry: `Oc1ccc(/C=C/c2cc(O)c3c(c2)O[C@H](c2ccc(O)cc2)[C@H]3c2cc(O)c3c(c2)O[C@H](c2ccc(O)cc2)[C@H]3c2cc(O)c3c(c2)O[C@H](c2ccc(O)cc2)[C@H]3c2cc(O)cc(O)c2)cc1`
Ans: 113

Q: Which activity at 3.7037 µM value belongs to Oc1ccc(/C=C/c2cc(O)c3c(c2)O[C@@H](c2ccc(O)cc2)[C@@H]3c2cc(O)c3c(c2)O[C@H](c2ccc(O)cc2)[C@H]3c2cc(O)cc(O)c2)cc1 [Compound 6, (−)-Gnetin E] ?
Ans: 113

Q: If you can, please state the reported activity at 3.7037 µM value of Oc1ccc(/C=C/c2cc(O)c3c(c2)O[C@H](c2ccc(O)cc2O)[C@@H]3c2cc(O)cc(O)c2)cc1 (relative stereo) [Compound 2, (+)-Gnetupendin C] .
Ans: 113

Q: Look at this compound and give its reported activity at 3.7037 µM. Oc1ccc(/C=C/c2cc(O)c3c(c2)O[C@@H](c2ccc(O)cc2)[C@@H]3c2cc(O)c3c(c2)O[C@@H](c2ccc(O)cc2O)[C@H]3c2cc(O)cc(O)c2)cc1 [Compound 4, (−)-Gnetoline A]
Ans: 113
